- Target under test: Peroxisome proliferator-activated receptor gamma (Homo sapiens)
- Method summary: partial agonism at human PPARgamma receptor – cell-based, luciferase reporter, luminescence, primary screen (AID 504452);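 also: Cos-1 cells carrying PPARgamma and a response element luciferase reporter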
- Study conditions: cell-based PPARg luciferase reporter, at 5 µM, stronger effect = higher value; measured here: relative to full agonist control
For each of the compounds below, state its activation (% of full agonist control).
One number for each entry, in %.

These recorded examples may help you get a feel for the data.
CC(=O)N/C(=C\c1ccc2c(c1)OCO2)C(=O)NC(C(=O)O)c1ccccc1 (stereo not given)
27.7
Cc1nn(Cc2cccc(C(=O)Nc3ccn(Cc4ccccc4F)n3)c2)c(C)c1[N+](=O)[O-]
32.8
O=C(Nc1ccccc1F)C(=O)c1cn(CC(=O)N2CCCCC2)c2ccccc12
34.4
O=C(CC(C(=O)N1CCc2ccccc21)n1ccnc1)NCc1ccccc1 (stereo not given)
14.1
COc1ccccc1N1C(=O)C2C(c3ccccc3F)NN(C(=O)c3ccc(C)cc3)C2C1=O (stereo not given)
26.8

Would you mind listing activation (% of full agonist control) for each of the following compounds?
1. Cc1cccc(NC(=O)CSc2nc(=O)n(CCN3CCOCC3)c3c2CCCC3)c1C
2. CCn1cc(C(=O)N2CCN(c3ccc(OC)cc3)CC2)c2cc(OC)c(OC)cc2c1=O
3. O=C(Cn1c(=O)c(=O)n(Cc2ccccc2)c2ccc(Cl)cc21)Nc1cc(F)ccc1F
4. COc1ccc(N2CCN(C3CC(=O)N(Cc4ccc(N5CCCC5=O)cc4)C3=O)CC2)cc1 (stereo not given)
5. COc1cccc(CN2CCN(Cc3ccc4c(NC(C)=O)cccc4n3)CC2CCO)c1 (stereo not given)
6. COc1ccc(C2CC(=O)N3CN(c4ccccc4F)CSC3=C2C#N)cc1OC (stereo not given)
7. CC1Cc2cc(/C(O)=C3/C(=O)C(=O)N(CCN4CCOCC4)C3c3ccc(N(C)C)cc3)ccc2O1 (stereo not given)

33.1
27.6
28.4
27.6
36.5
29.2
29.1

Batch of 4 compounds: report activation (% of full agonist control) for each.
1. Cc1cc(C(=O)CN2C(=O)C(=O)N(Cc3ccccc3)C2=O)c(C)n1-c1ccc2c(c1)OCCO2
2. O=C1C(=O)N(CCCn2ccnc2)C(c2ccc(Cl)cc2)/C1=C(\O)c1ccc2c(c1)OCCO2 (stereo not given)
3. Cc1cccn2c(=O)c(/C=C(\C#N)C(=O)NC3CCS(=O)(=O)C3)c(Oc3ccc(F)cc3)nc12 (stereo not given)
4. CC(Oc1ccc2c(c1)oc(=O)c1ccccc12)C(=O)NC(Cc1c[nH]c2ccc(O)cc12)C(=O)O (stereo not given)

40.4
41.5
34.6
49.2

Need activation (% of full agonist control) for each of these compounds.
1. O=C(CCn1c(=O)c2sccc2n(CC(=O)OCc2ccccc2)c1=O)NCc1ccccc1
2. COc1cc(C2/C(=C(/O)c3ccc(F)cc3)C(=O)C(=O)N2CCCC(=O)O)ccc1O (stereo not given)
3. NC(=O)C1CCCN(Cc2c(C(=O)N3CCc4ccccc4C3)nc3ccc(Cl)cn23)C1 (stereo not given)

1: 31.1; 2: 37; 3: 30.2

I'd like to know its activation (% of full agonist control). The compound in question is CCc1ccc(N2CC(C(=O)OCC(=O)Nc3ccc(C(C)=O)cc3)CC2=O)cc1 (stereo not given) 31

These measurements were taken from PubChem BioAssay AID504452.
